System: RXRa DBDmut IVT, anti-RXR (DBD mutation: RXRa K156A/R161A, NR concentration 90 nM)
protocol: PBM binding z-score (relative to random genomic background probes); higher = stronger binding; sequences stand for … in GC…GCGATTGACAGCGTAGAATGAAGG
Entries are grouped by PBM binding z-score into these classes: b0 = under 0.2, b1 = from 0.2 up to 0.8, b2 = 0.8 and over

>>> df
                      residuesequence  assignedlabel
0  CTACCAAGGTGAACAAGGTCGTTGGTTACTATTC             b2
1  CGTCATAGTTCAACTAAGGTAACGTAAAGCACGC             b2
2  ATATGTAGGTTAGATCCGGGTCATTCAGGCTATG             b1
3  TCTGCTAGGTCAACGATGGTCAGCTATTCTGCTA             b2
4  CCTCGGAGGACAGAATGTCAGAGCTGTCCGCTTT             b0
5  CCTCGGAGGACAACAGGACGTCAGAGCTGCCAGA             b0
6  GCTATTAGTTGAACGGGCAACCGAATGATTCTCG             b1
7  TATACAGGGTCCAAGGCCAGAGTACGAATGTCGA             b2
8  ACTCGGAGGACAATGGTCAGAGCTACGCCAGTGA             b1
9  TTACCAAGGTGAAGGTCGTCGATCCCTCTGTAGA             b0
